Where these numbers come from: PubChem BioAssay

Experiment: binders of probe aHhip on microarray, primary screen, stem cell growth factor project, biochemical, small-molecule microarray, fluorescence 635/667 (AID 1087);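 also: score merges spot fluorescence at 667nm with spot signal to noise ratio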
Conditions: higher = more signal
We'd kindly ask you to apply these composite z-score classes: bin 1: < -0.06; bin 2: ≥ -0.06 and < 0.06; bin 3: ≥ 0.06

Compound	Label class
CCOC1=C2C(CN(S(=O)(=O)c3ccc(C)cc3)C2c2ccc(C)cc2)C2C(=O)N(c3ccccc3)C(=O)C2C1 (centres undefined)	bin 1

Incoming: Assign a category based on measured composite z-score for [N-]=[N+]=NCc1ccccc1[C@@H]1OC(c2ccc(OCCCO)cc2)=N[C@]1(CCS(=O)(=O)c1ccccc1)C(=O)NCc1ccccc1 and give only the class name.
Outgoing: bin 3

Incoming: Continue with COc1ccc(NN2C(C(O)c3ccc([N+](=O)[O-])cc3)C=CC3C(=O)N(C4CCCCC4)C(=O)C32)cc1 (centres undefined)
Outgoing: bin 2

Incoming: Continue with C=C(CCCC)C(=O)CC[C@H](OC(=O)c1cccnc1)c1ccccc1OCCO
Outgoing: bin 2
